Assay: background-corrected fluorescence of 3'-dye-labeled ssDNA relative to brightest sequence (3'-GCGCG) (fraction); higher = brighter dye fluorescence (less quenching)
Conditions: dye: Cy5 (3' terminal)
Short version: background-corrected fluorescence at least 0.4 is criterion met, less is criterion not met.

>>> print(df.to_string())
                           ordered_residues  assigned_category
0  TTTTTTCATGAGCATGCTCATTTTTTTTTTTTTTTGCTAG [GATCG]      criterion met
1  TTTTTTGATCATGCTGAGCATTTTTTTTTTTTTTTCGACT [TCAGC]  criterion not met
2  TTTTTTGCTGATGCGCATGATTTTTTTTTTTTTTTACATC [CTACA]  criterion not met
3  TTTTTTGCTGCTCATGATGCTTTTTTTTTTTTTTTAAGCA [ACGAA]      criterion met
